These measurements were taken from patent US11993599B2.

# tested.system: BRG1 (Homo sapiens, UniProt P51532)
# Construct: either BRM primary antibody (Cell signaling Cat #11966) or BRG primary antibody (Abcam, ab 110641); endogenous in cells; host or cells: SW1573
# Sequence (P51532 whole entry): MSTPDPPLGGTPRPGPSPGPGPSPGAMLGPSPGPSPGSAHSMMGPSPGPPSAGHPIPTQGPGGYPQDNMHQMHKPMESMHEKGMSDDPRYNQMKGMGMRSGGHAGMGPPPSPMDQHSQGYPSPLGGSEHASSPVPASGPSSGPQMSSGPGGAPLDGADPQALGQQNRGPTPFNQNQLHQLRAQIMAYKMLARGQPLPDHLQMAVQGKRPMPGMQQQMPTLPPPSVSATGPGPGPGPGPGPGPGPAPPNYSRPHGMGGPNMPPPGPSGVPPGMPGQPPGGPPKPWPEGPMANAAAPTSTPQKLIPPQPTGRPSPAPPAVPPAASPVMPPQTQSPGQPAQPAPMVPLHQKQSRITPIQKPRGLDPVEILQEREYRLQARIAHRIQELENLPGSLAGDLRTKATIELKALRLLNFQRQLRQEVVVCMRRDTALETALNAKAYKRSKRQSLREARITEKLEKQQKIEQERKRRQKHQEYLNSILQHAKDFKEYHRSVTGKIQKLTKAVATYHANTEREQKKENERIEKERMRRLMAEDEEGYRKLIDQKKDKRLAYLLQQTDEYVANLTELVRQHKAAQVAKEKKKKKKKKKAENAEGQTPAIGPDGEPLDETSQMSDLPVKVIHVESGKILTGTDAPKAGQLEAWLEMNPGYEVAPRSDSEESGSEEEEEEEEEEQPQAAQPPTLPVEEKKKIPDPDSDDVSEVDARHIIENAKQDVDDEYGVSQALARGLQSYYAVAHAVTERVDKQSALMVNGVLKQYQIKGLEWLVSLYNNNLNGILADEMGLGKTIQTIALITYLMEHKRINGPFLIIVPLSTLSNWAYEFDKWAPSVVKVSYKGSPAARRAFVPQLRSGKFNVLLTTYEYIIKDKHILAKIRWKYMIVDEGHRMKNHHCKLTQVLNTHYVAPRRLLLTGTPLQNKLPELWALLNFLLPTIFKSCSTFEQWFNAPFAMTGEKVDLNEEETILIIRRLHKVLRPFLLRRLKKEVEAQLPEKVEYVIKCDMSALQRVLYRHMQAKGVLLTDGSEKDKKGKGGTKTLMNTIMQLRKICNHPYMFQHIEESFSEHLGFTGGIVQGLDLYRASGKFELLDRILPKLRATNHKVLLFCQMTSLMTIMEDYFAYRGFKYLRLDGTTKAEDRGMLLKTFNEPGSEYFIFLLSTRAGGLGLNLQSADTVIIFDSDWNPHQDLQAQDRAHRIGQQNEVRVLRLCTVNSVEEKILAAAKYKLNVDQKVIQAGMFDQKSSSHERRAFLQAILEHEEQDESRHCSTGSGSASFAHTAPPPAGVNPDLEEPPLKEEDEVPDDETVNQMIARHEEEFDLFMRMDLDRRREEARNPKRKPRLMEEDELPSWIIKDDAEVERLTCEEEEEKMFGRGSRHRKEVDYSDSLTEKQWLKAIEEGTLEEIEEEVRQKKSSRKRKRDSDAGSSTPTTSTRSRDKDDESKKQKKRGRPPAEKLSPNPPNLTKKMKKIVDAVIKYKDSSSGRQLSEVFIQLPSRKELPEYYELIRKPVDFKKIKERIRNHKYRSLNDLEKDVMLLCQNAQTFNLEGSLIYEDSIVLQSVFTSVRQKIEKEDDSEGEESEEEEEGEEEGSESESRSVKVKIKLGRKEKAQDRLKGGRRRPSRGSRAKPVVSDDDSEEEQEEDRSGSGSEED
# assay.info: Immunofluorescence assay for BRG1 degradation in SW1573 cells
# Type: cell-based
# condition.details: SW1573, 20 h, 20 hours incubation, normalized to a known degrader control, read-out: BRG1 IF Degradation Sinf (%)
Measured Dmax, listed per entry.

- compound: "Nc1nnc(-c2ccccc2O)cc1N1CC2CCC(C1)N2c1ccnc(C#CCN2CCCCC2CO)c1 (stereo not drawn) [Compound 55]"
  tested.system: "BRG1 (Homo sapiens, UniProt P51532)"
  Dmax: "30 to 70%"
- compound: "NCCCCCCC#Cc1cc(N2C3CCC2CN(c2cc(-c4ccccc4O)nnc2N)C3)ccn1 [Compound 11]"
  tested.system: "BRG1 (Homo sapiens, UniProt P51532)"
  Dmax: "30 to 70%"
- compound: "Nc1nnc(-c2ccccc2O)cc1N1CC2CCC(C1)N2c1ccnc(C#CCN2CCCC3(CC2)CC3(F)F)c1 (stereo not drawn) [Compound 208]"
  tested.system: "BRG1 (Homo sapiens, UniProt P51532)"
  Dmax: "30 to 70%"
- compound: "Nc1nnc(-c2ccccc2O)cc1N1CC2CCC(C1)N2c1ccnc(C#CCN2CC3(CCCCO3)C2)c1 [Compound 66]"
  tested.system: "BRG1 (Homo sapiens, UniProt P51532)"
  Dmax: "30 to 70%"
- compound: "Nc1nnc(-c2ccccc2O)cc1N1CC2CCC(C1)N2c1ccnc(C#CCN2CCCC(F)(F)CC2)c1 [Compound 189]"
  tested.system: "BRG1 (Homo sapiens, UniProt P51532)"
  Dmax: "30 to 70%"

-- ask // output Dmax; input Nc1nnc(-c2ccccc2O)cc1N1CC2CCC(C1)N2c1ccnc(C#CC2CCN2)c1 (stereo not drawn) [Compound 17] ; system BRG1 (Homo sapiens, UniProt P51532)
-- reply 0 to 30%

-- ask # assay system BRG1 (Homo sapiens, UniProt P51532): give Dmax of CC1CCN(CC#Cc2cc(N3C4CCC3CN(c3cc(-c5ccccc5O)nnc3N)C4)ccn2)CCC1(C)O (stereo not drawn) [Compound 239]
-- reply 30 to 70%

-- ask Name the value of Dmax reported for CN(CC#Cc1cc(N2C3CCC2CN(c2cc(-c4ccccc4O)nnc2N)C3)ccn1)CCO [Compound 3] when tested on BRG1 (Homo sapiens, UniProt P51532).
-- reply 30 to 70%

-- ask Name the recorded Dmax of NCCCCCCc1cc(N2C3CCC2CN(c2cc(-c4ccccc4O)nnc2N)C3)ccn1 [Compound 20] , assay system BRG1 (Homo sapiens, UniProt P51532).
-- reply 71 to 120%

-- ask GET Dmax where system = BRG1 (Homo sapiens, UniProt P51532) and item = Nc1nnc(-c2ccccc2O)cc1N1CC2CCC(C1)N2c1ccnc(C#CCN2CC3(COCCO3)C2)c1 [Compound 160]
-- reply 0 to 30%

-- ask Give Dmax for COC1C2CCC1N(CC#Cc1cc(N3C4CCC3CN(c3cc(-c5ccccc5O)nnc3N)C4)ccn1)C2 (stereo not drawn) [Compound 82] tested on BRG1 (Homo sapiens, UniProt P51532).
-- reply 30 to 70%

-- ask Write down the reported Dmax (system: BRG1 (Homo sapiens, UniProt P51532)) of CNC(=O)C12CC(CN1CC#Cc1cc(N3C4CCC3CN(c3cc(-c5ccccc5O)nnc3N)C4)ccn1)C2 [Compound 148]
-- reply 30 to 70%

-- ask Fill: Dmax (BRG1 (Homo sapiens, UniProt P51532)) for this compound CC1(F)CCCCN(CC#Cc2cc(N3C4CCC3CN(c3cc(-c5ccccc5O)nnc3N)C4)ccn2)C1 (stereo not drawn) [Compound 243]
-- reply 30 to 70%

-- ask Check BRG1 (Homo sapiens, UniProt P51532) data and give Dmax for Nc1nnc(-c2ccccc2O)cc1N1CC2CCC(C1)N2c1ccnc(C#CCN2CCC3(CC2)CC3)c1 [Compound 136] .
-- reply 30 to 70%

-- ask Enter measured Dmax, system BRG1 (Homo sapiens, UniProt P51532), for the compound shown: Nc1nnc(-c2ccccc2O)cc1N1CC2CCC(C1)N2c1ccnc(C#CCN2CCCC3(CC3)C2)c1 [Compound 99]
-- reply 30 to 70%

-- ask Provide Dmax, recorded with BRG1 (Homo sapiens, UniProt P51532), of N#CCC1CN(CC#Cc2cc(N3C4CCC3CN(c3cc(-c5ccccc5O)nnc3N)C4)ccn2)C1 [Compound 152]
-- reply 30 to 70%

-- ask Recall the reported Dmax of CC1(O)CCCCN(CC#Cc2cc(N3C4CCC3CN(c3cc(-c5ccccc5O)nnc3N)C4)ccn2)C1 (stereo not drawn) [Compound 240] on BRG1 (Homo sapiens, UniProt P51532) and write it down.
-- reply 30 to 70%

-- ask Find Dmax for Nc1nnc(-c2ccccc2O)cc1N1CC2CCC(C1)N2c1ccnc(C#CCN2CCCC(CO)C2)c1 (stereo not drawn) [Compound 134] on BRG1 (Homo sapiens, UniProt P51532) and write it down.
-- reply 30 to 70%

-- ask Give Dmax only, for Nc1nnc(-c2ccccc2O)cc1N1CC2CCC(C1)N2c1cc(C#CCN2CCCCCC2)ncn1 [Compound 247] , using BRG1 (Homo sapiens, UniProt P51532) data.
-- reply 71 to 120%

-- ask Report Dmax on BRG1 (Homo sapiens, UniProt P51532) for this entry: Nc1nnc(-c2ccccc2O)cc1N1CC2CCC(C1)N2c1ccnc(C#CCN2CC3CCC3C2)c1 (stereo not drawn) [Compound 91]
-- reply 30 to 70%

-- ask Write down measured Dmax (BRG1 (Homo sapiens, UniProt P51532)) for this compound. Nc1nnc(-c2ccccc2O)cc1N1CC2CCC(C1)N2c1ccnc(C#CCN2C[C@H]3CC[C@@H]2C3)c1 [Compound 115]
-- reply 30 to 70%

-- ask Name the value of Dmax reported for CC1(C)CCCN(CC#Cc2cc(N3C4CCC3CN(c3cc(-c5ccccc5O)nnc3N)C4)ccn2)CC1 [Compound 205] when tested on BRG1 (Homo sapiens, UniProt P51532).
-- reply 30 to 70%

====

This listing pairs compounds with measured Dmax.
# tested.system: BRG1 (Homo sapiens, UniProt P51532)
# Construct: either BRM primary antibody (Cell signaling Cat #11966) or BRG primary antibody (Abcam, ab 110641); endogenous in cells; host or cells: SW1573
# assay.info: Immunofluorescence assay for BRG1 degradation in SW1573 cells
# Assay type: cell-based
# condition.details: SW1573, 20 h, 20 hours incubation, normalized to a known degrader control, read-out: BRG1 IF Degradation Sinf (%)

- compound: "Nc1nnc(-c2ccccc2O)cc1N1CC2CCC(C1)N2c1ccnc(C#CCN2CC(c3ccccc3)C2)c1 [Compound 234]"
  Dmax: "71 to 120%"
- compound: "Nc1nnc(-c2ccccc2O)cc1N1CC2CCC(C1)N2c1ccnc(C#CCN2CC3(CC3)C2)c1 [Compound 233]"
  Dmax: "30 to 70%"
- compound: "CC1CN(CC#Cc2cc(N3C4CCC3CN(c3cc(-c5ccccc5O)nnc3N)C4)ccn2)CCCO1 (stereo not shown) [Compound 42]"
  Dmax: "30 to 70%"

Proceed to the following item.
-- ask For the compound Nc1nnc(-c2ccccc2O)cc1N1CC2CCC(C1)N2c1ccnc(C#CCN2CCCC(CO)CC2)c1 (stereo not shown) [Compound 215] , give its measured Dmax value.
-- reply 71 to 120%

====

Items are presented alongside their recorded DC50.
# tested.system: BRM (Homo sapiens)
# Sequence (P51531 whole entry): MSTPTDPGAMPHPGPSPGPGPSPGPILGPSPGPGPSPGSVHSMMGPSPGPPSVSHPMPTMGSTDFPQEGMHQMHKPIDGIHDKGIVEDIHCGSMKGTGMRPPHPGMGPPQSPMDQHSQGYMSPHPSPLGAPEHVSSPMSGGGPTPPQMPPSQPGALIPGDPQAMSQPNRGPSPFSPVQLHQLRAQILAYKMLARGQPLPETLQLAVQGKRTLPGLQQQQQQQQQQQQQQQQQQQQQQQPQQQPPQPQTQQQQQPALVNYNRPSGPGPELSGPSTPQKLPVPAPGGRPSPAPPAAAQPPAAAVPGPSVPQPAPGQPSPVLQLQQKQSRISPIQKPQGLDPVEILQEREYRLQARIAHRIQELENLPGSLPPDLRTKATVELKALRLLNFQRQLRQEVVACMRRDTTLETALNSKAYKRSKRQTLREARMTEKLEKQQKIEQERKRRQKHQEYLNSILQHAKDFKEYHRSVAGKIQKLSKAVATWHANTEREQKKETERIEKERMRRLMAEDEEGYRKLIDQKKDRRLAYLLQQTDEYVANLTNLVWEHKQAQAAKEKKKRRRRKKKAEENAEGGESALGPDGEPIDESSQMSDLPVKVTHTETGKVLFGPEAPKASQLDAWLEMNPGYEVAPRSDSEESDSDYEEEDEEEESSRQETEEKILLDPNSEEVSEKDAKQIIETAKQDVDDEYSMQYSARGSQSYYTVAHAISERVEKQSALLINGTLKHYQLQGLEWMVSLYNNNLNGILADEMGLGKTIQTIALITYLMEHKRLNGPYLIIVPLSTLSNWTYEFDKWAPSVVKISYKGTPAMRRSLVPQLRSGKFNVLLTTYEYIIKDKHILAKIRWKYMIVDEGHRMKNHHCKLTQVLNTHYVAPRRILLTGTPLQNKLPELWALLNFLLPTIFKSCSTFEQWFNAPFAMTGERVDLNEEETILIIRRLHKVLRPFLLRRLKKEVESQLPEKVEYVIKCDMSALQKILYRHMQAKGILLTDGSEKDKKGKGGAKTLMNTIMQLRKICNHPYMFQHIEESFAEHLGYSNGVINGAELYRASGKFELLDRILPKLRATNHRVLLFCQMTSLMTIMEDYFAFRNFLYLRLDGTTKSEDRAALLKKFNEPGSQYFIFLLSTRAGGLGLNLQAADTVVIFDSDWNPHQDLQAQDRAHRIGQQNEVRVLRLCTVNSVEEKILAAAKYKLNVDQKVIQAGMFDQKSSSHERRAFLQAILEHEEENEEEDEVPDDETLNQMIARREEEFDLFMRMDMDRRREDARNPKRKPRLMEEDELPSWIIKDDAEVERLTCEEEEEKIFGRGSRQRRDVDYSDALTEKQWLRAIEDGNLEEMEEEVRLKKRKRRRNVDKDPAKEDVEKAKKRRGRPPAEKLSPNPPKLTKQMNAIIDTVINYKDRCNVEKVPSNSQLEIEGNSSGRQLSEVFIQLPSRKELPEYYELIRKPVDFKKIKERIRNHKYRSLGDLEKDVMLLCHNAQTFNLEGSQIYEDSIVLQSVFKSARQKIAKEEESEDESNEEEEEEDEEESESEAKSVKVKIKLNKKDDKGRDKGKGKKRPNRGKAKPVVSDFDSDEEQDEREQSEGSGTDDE
# assay.info: Immunofluorescence assay for BRM degradation in SW1573 cells
# Assay type: cell-based
# Set-up: treated overnight at 4° C. with either BRM primary antibody (Cell signaling Cat #11966) or BRG primary antibody; endogenous in cells; host or cells: SW1573
# condition.details: 20 hours incubation, immunofluorescence mean nuclear signal, read-out: BRM IF Degradation IC50

Reference set (4 entries):
- compound: "NCCC#Cc1cc(N2C3CCC2CN(c2cc(-c4ccccc4O)nnc2N)C3)ccn1"
  DC50: "> 100 nM"
- compound: "Nc1nnc(-c2ccccc2O)cc1N1CC2CCC(C1)N2c1ccnc(C#CCN2CCCCC(O)C2)c1 (stereo not shown)"
  DC50: "< 10 nM"
- compound: "CC1(F)CN(CC#Cc2cc(N3C4CCC3CN(c3cc(-c5ccccc5O)nnc3N)C4)ccn2)C1"
  DC50: "10 to 100 nM"
- compound: "COC1CCCN(CC#Cc2cc(N3C4CCC3CN(c3cc(-c5ccccc5O)nnc3N)C4)ccn2)C1 (stereo not shown)"
  DC50: "10 to 100 nM"

-- ask Supply DC50 value. Item: `Nc1nnc(-c2ccccc2O)cc1N1CC2CCC(C1)N2c1ccnc(C#CCN2CC(F)(C3CC3)C2)c1`
-- reply 10 to 100 nM

-- ask Output DC50 of `N#CC1CCN(CC#Cc2cc(N3C4CCC3CN(c3cc(-c5ccccc5O)nnc3N)C4)ccn2)CC1`
-- reply < 10 nM

-- ask Find the measured DC50 of `COC1(C)CN(CC#Cc2cc(N3C4CCC3CN(c3cc(-c5ccccc5O)nnc3N)C4)ccn2)C1` and report it.
-- reply < 10 nM
